The measured values listed here are drawn from patent US20260274955A1.

# Test target: T1, anti-CD28 Fab (SEQ ID NOs: 202, 203)
# T1 construct: biotinylated and captured on neutravidin coated plates in the phage ELISA
# T1 sequence (VH, as listed by the source, chain 1 of 2): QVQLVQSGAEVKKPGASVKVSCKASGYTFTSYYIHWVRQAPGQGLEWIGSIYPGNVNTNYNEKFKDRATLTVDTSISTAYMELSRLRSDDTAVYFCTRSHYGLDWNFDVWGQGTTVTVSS
# T1 sequence (VL, as listed by the source, chain 2 of 2): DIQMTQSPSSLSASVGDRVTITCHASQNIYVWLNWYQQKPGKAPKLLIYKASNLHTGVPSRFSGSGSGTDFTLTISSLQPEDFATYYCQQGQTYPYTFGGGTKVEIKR
# Assay comment: phage binding ELISA; biotinylated Fab on neutravidin plate;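 note: clonal phage supernatants added to Fab wells pretreated with CD28 antigen or with blocking buffer only, bound phage read out via HRP-linked anti-M13 antibody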
# Anti-CD28 Fab (SEQ ID NOs: 202, 203) signal annotations
Just the number, please, no unit after it.

{"Binder": "YCDGHSKEYMHKCL [Phage-307]", "Recorded number": 1.9}
{"Binder": "YCDGHYPEYMSKCL [Phage-406]", "Recorded number": 1.75}

Consider the binder YCDGHLPEYMRKCL [Phage-330] and give its recorded Anti-CD28 Fab (SEQ ID NOs: 202, 203) signal.
1.88
